assayed_system: T1, human GPC3 recombinant protein (purchased from Shanghai Rui Jin Biotechnology Co., Ltd.) (human, UniProt P51654 25-559, limits assumed)
T1 construct: Bought recombinant protein; also called huGPC3; antigen GPC3
assay_remarks: SPR Biacore T200, antibody captured by anti-human IgG (Fc), GPC3 as analyte, single-cycle kinetics, 25 °C
Protocol: To quantitatively analyze the binding of P7D4 series antibodies to GPC3, the affinity and kinetic parameters of P7D4 series single-chain antibodies were measured by capture method using Biacore T200 system (from GE). […] The interaction between human GPC3 and the captured antibody caused the change of the molecular concentration on the surface of the sensor chip which was measured according to changes in SPR Signal and expressed in resonance units (RU). […]

binder	kon [M⁻¹ s⁻¹]
P7D4 mutant single chain antibody am4 (scFv, not shown: a dimerising Fc or GST) scFv: QVQLQESGGGLVQPGRSLRLSCAASGFTFSTYAMTWVRQAPGKGLEWVSSISSSGESTYYADSVKGRFTISRDNSKNTLYLQMNSLRAEDTAVYYCAKDRRGSHADAFDVWGQGTLVTVSSGGGGSGGGGSGGGGSQSALTQPPSASGSPGQSVTISCTGTSSDVGGYNYVSWYQQYPGKAPKLLIYGNSNRPSGVPDRFSGSKSGTSASLAITGLQAEDGADYYCQSYDSSLRVVFGGGTKVTVLG	539000
P7D4 mutant single chain antibody am35 (scFv, not shown: a dimerising Fc or GST) scFv: QVQLQESGGGLVQPGRSLRLSCAASGFTFSSYAMHWVRQAPGKGLEWVSAISSSGGSTYYADSVKGRFTISRDNSKNTLYLQMNSLRAEDTAVYYCAKDRRGSHADAFDVWGQGTLVTVSSGGGGSGGGGSGGGGSQSALTQPPSASGSPGQSVTISCTGTSSDVGHKFPVSWYQQYPGKAPKLLIYKNLLRPSGVPDRFSGSKSGTSASLAITGLQAEDGADYYCQSYDSSLRVVFGGGTKVTVLG	738000
P7D4 mutant single chain antibody am42 (scFv, not shown: a dimerising Fc or GST) scFv: QVQLQESGGGLVQPGRSLRLSCAASGFTFSSYAMHWVRQAPGKGLEWVSAISSSGGSTYYADSVKGRFTISRDNSKNTLYLQMNSLRAEDTAVYYCAKDRRGSHADAFDVWGQGTLVTVSSGGGGSGGGGSGGGGSQSALTQPPSASGSPGQSVTISCTGTSSDVGLMHNVSWYQQYPGKAPKLLIYKSSSRPSGVPDRFSGSKSGTSASLAITGLQAEDGADYYCQSYDSSLRVVFGGGTKVTVLG	816000

Origin of the recorded values: patent US20240342305A1
